Just for reference, ChEMBL document CHEMBL4312027 is where these values come from.

Experiment: Solubility of compound in water
Format: physicochemical
metric: solubility (µg/mL)
One number for each entry, in µg/mL.

Problem: Consider the compound shown here: `[Br-].[Br-].c1ccc([P+](CCCc2n(Cc3ccc4ccccc4c3)c3ccccc3[n+]2Cc2ccc3ccccc3c2)(c2ccccc2)c2ccccc2)cc1` What is its recorded solubility?
Solution: 8000
